# System: HIV-1 nucleocapsid protein NCp7 (binding to TG oligonucleotide)
# Method: HIV Nucleocapsid (AID 346);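 further: potency means the concentration at half of the fitted maximal effect; potency is for inhibitors that block NC binding and lower polarization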
# Test parameters: HIV-1 NC / fluorescein-TGTGTGTG probe, fluorescence polarization
# Protocol: NCGC Assay Overview: HIV-1 nucleocapsid protein (HIV-1 NC) is a small (6.5 kDa) basic zinc-finger protein which participates in packaging of viral genomic RNA. The spacing and metal-chelating residues (3 Cys, 1 His) of the Cys-X2-Cys-X4-His-X4-Cys Zn fingers are conserved among all known retroviruses (J. Med. Chem. 1998, 41, 1371-1381). […] NCGC Assay Protocol Summary: Buffer. […] The plates were incubated for 1 hr at room temperature, and then read on ViewLux (Perkin-Elmer). […]
Activity calls are given as the source filed them. How the calls were made is not given here.
Endpoint label: Potency

Here are 2 compounds together with their reported answers.
Smiles string	Target entity	Potency
Cc1cnc(CNc2ccnc(-c3ccoc3)n2)cn1	HIV-1 nucleocapsid protein NCp7 (binding to TG oligonucleotide)	> 20 µM (inactive)
Cc1ccccc1-c1nc(N(C)C)c2ccccc2n1	HIV-1 nucleocapsid protein NCp7 (binding to TG oligonucleotide)	> 20 µM (inactive)

Give Potency for each listed item.
1. CC(=O)N1CCC2(CC1)CN(Cc1ccccc1)C2
2. O=C(c1cc(C(F)(F)F)cc(C(F)(F)F)c1)N1CCC2(CCCN(c3ccccn3)C2)CC1
3. COc1ccc(-c2nc3cnc(OC)nc3n(CCc3ccccc3)c2=O)cc1
4. COc1cccc(-c2nccc(NCc3ccc(OC)cc3OC)n2)c1

["> 20 µM (inactive)", "> 20 µM (inactive)", "> 20 µM (inactive)", "> 20 µM (inactive)"]
